system: HT29; assay: Growth inhibition test (MTT), cytotoxic action on tumour cell lines; format: cell-based, human; details: HT29; MTT after day 6; read-out: IC50 values of the cytotoxic action on tumour cell lines, HT29
*1 amine or outer side, *2 acyl side, *3 side chain or, on linkers, in order; H or OH if unused. Where a SMILES comes first, the peptide text is derived from it. [ ]: non-standard residue; d: D form. The star is where a group is joined. Camptothecin(20R,20-O) = CC[C@]1(O*)C(=O)OCc2c1cc1n(c2=O)Cc2cc3ccccc3nc2-1; X3 = O=C(Nc1cccc(-c2ccc(S(=O)(=O)*)cc2)c1)Nc1nc2ccccc2[nH]1; X5 = O=C(Nc1cccc(-c2cccc(S(=O)(=O)*)c2)c1)Nc1nc2ccccc2[nH]1; X4 = O=C(O)CC(N[*:1])c1cccc(NC(=S)[*:2])c1
Field: IC50. Provide a value for each of the molecules that follow.
// units = µM; emit number, no label

Return IC50 (reported value) for this molecule: CC[C@]1(OC(=O)[C@H](NC(=O)[C@@H](Cc2c[nH]cn2)NC(=O)[C@@H](CC(C)C)NC(=O)CNC(=O)[C@H](CC(C)C)NC(=O)[C@H]2CCCN2C(=S)Nc2cccc(C(CC(=O)O)NS(=O)(=O)c3cccc(-c4cccc(NC(=O)Nc5nc6ccccc6[nH]5)c4)c3)c2)C(C)C)C(=O)OCc2c1cc1n(c2=O)Cc2cc3ccccc3nc2-1 (stereo partly drawn) [Example 5] (X5-[X4][dP]LG[dL][dH][dV]-{Camptothecin(20R,20-O)})
0.1

Return IC50 (reported value) for this molecule: CCCNC(=O)Nc1cccc(S(=O)(=O)Nc2cccc(C(CC(=O)O)NC(=O)Nc3ccc(NC(=S)N4CCC[C@H]4C(=O)N[C@@H](CC(C)C)C(=O)NCC(=O)N[C@@H](CC(C)C)C(=O)N[C@H](C(=O)N[C@H](C(=O)O[C@]4(CC)C(=O)OCc5c4cc4n(c5=O)Cc5cc6ccccc6nc5-4)C(C)C)C(C)C)cc3)c2)c1 (stereo partly drawn) [Example 32]
0.1

Return IC50 (reported value) for this molecule: CCCNC(=O)Nc1cccc(S(=O)(=O)Nc2cccc(C(CC(=O)O)NC(=O)Nc3ccc(NC(=S)N4CCC[C@H]4C(=O)N[C@@H](CC(C)C)C(=O)NCC(=O)N[C@@H](CC(C)C)C(=O)N[C@H](C(=O)N[C@H](C(=O)O[C@]4(CC)C(=O)OCc5c4cc4n(c5=O)Cc5cc6ccccc6nc5-4)C(C)C)C(C)CC)cc3)c2)c1 (stereo partly drawn) [Example 35]
0.15

Return IC50 (reported value) for this molecule: CC[C@]1(OC(=O)[C@H](NC(=O)[C@@H](Cc2c[nH]cn2)NC(=O)[C@@H](CC(C)C)NC(=O)CNC(=O)[C@H](CC(C)C)NC(=O)[C@H]2CCCN2C(=S)Nc2cccc(C(CC(=O)O)NS(=O)(=O)c3ccc(-c4cccc(NC(=O)Nc5nc6ccccc6[nH]5)c4)cc3)c2)C(C)C)C(=O)OCc2c1cc1n(c2=O)Cc2cc3ccccc3nc2-1 (stereo partly drawn) [Example 4] (X3-[X4][dP]LG[dL][dH][dV]-{Camptothecin(20R,20-O)})
0.09

Return IC50 (reported value) for this molecule: CCCNC(=O)Nc1cccc(S(=O)(=O)Nc2cccc(C(CC(=O)O)NC(=O)Nc3ccc(NC(=S)NCC(=O)N4CCC[C@@H]4C(=O)N[C@@H](CC(C)C)C(=O)NCC(=O)N[C@H](CC(C)C)C(=O)N[C@H](Cc4c[nH]cn4)C(=O)N[C@@H](C(=O)O[C@@]4(CC)C(=O)OCc5c4cc4n(c5=O)Cc5cc6ccccc6nc5-4)C(C)C)cc3)c2)c1 (single isomer, unassigned) [Example 29]
0.08

Return IC50 (reported value) for this molecule: CCCNC(=O)Nc1cccc(S(=O)(=O)Nc2cccc(C(CC(=O)O)NC(=O)Nc3ccc(NC(=S)N4CCCC4C(=O)NC(CC(C)C)C(=O)NCC(=O)N[C@H](CC(C)C)C(=O)N[C@@H](C(=O)O[C@@]4(CC)C(=O)OCc5c4cc4n(c5=O)Cc5cc6ccccc6nc5-4)C(C)C)cc3)c2)c1 (stereo partly drawn) [Example 8]
0.15
